Tested on: MALME-3M melanoma
Test protocol: NCI tumour cell line growth inhibition, 48 h
Entries and their TGI

Use the examples below as a reference point.
| Compound | Experimental readout | Assay result |
| --- | --- | --- |
| COc1ccc(C2CC(n3nnnc3-c3ccccc3)=NN2)cc1 (stereo unspecified) | TGI | 20.3 µM |
| CC(=O)N1CCN(C23OC4(N5CCN(C(C)=O)CC5)C5C6CC(C7C6C4C72)C53)CC1 (stereo unspecified) | TGI | > 100 µM |
| O=C1Nc2cccc3cc(NCC(O)CCl)cc1c23 (stereo unspecified) | TGI | > 100 µM |

Query :: Give MALME-3M melanoma TGI for COc1ccc(OC)c2c1C1CCC(=O)N1CN2C(C)=O (stereo unspecified)
Result :: > 100 µM

Query :: Give MALME-3M melanoma TGI for Cc1ccc(S(=O)(=O)N=Nc2c(O)[nH]c3c(Cl)cc(Cl)cc23)cc1
Result :: > 100 µM

Query :: Give MALME-3M melanoma TGI for COc1ccc(Cn2c(Cl)c(/C=C3/C(=O)Nc4ccccc43)c3cc(OC)c(C)cc32)cc1
Result :: > 100 µM
